Tested on: tetrabenazine ptosis
assay notes: Tetrabenazine antagonism on mice
test context: p.o., mice, tetrabenazine antagonism
readout label: Therapeutic index LD50/ED50
Enter the number alone.

Known Therapeutic index LD50/ED50 results, listed for orientation:
{"columns": ["compound", "Therapeutic index LD50/ED50"],
 "data": [
  ["Clc1ccc(-c2ncn[n+]3ccccc23)cc1", 64.2],
  ["CN(C)CCC=C1c2ccccc2CCc2ccccc21 [Amitriptylin, reference compound]", 18.75],
  ["c1ccc(-c2ncn[n+]3ccccc23)cc1", 46.7]
]}

Please find the next compound below.
Clc1ccc(-c2ncn[n+]3ccc4ccccc4c23)cc1 has a reported Therapeutic index LD50/ED50 of 187.5
